Recorded values, source patent US20170056486A1.

system-under-test: T1, HLA-A*02 (human)
T1 construct: Peptide-receptive MHC monomer made by UV cleavage of a UV-sensitive ligand and captured on streptavidin plates; also called HLA-A*02 MHC class I molecule; peptide-receptive MHC
assay-explanation: UV-exchange ELISA (anti-b2m); yield 50%-75%
// reported peptide exchange yield per item

binder | peptide exchange yield
YLVAHNLLL | 50 to 75%

Tell me measured peptide exchange yield for LLLPLLPPLSPSLG please.
50 to 75%

Please report peptide exchange yield for the following binder: ILHEHHIFL
50 to 75%

Please give measured peptide exchange yield of the following entry: YVLNEEDLQKV
50 to 75%
